- measured_on: biotinylated human ApoC3 (human) (UniProt P02656)
- experimental_protocol: SPR, biotinylated human ApoC3 on streptavidin chip, scFv-Fc injected, pH 7.4
Parameter: pKd. Scope: all listed entries.
Scale: pKd equals -log10([C]), with [C] in mol/L.

Known results for binders:
5E5VH12_VLWT scFv-Fc antibody (scFv, part only; not given: Linker, domain order, Fc, V domains shown, not shown: another chain or arm of the molecule; a dimerising Fc or GST; small tags and cut ends) VH: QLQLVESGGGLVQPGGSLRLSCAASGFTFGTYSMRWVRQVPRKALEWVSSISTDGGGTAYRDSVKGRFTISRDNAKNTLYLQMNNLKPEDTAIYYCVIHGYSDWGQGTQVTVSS VL: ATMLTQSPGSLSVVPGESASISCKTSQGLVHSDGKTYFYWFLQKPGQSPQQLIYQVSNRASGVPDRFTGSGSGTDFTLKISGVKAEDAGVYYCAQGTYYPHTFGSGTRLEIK    9.29
5E5VHWT_VL8 scFv-Fc antibody (scFv, part only; not given: Linker, domain order, Fc, V domains shown, not shown: another chain or arm of the molecule; a dimerising Fc or GST; small tags and cut ends) VH: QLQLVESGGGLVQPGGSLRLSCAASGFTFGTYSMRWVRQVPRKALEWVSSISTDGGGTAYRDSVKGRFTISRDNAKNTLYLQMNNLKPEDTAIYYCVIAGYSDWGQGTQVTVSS VL: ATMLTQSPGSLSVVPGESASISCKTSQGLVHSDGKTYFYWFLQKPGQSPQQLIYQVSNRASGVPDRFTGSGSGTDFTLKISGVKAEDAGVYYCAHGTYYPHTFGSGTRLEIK    9.24

Item 5E5WT scFv-Fc antibody (scFv, part only; not given: Linker, domain order, Fc, V domains shown, not shown: another chain or arm of the molecule; a dimerising Fc or GST; small tags and cut ends) VH: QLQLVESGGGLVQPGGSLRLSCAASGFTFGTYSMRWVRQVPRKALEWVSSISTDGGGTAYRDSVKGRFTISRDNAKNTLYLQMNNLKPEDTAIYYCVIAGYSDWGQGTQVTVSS VL: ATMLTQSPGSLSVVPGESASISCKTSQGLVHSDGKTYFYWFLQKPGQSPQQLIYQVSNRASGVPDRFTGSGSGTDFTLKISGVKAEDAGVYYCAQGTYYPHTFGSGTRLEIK has what recorded pKd?
10.70

Item 5E5VH5_VLWT scFv-Fc antibody (scFv, part only; not given: Linker, domain order, Fc, V domains shown, not shown: another chain or arm of the molecule; a dimerising Fc or GST; small tags and cut ends) VH: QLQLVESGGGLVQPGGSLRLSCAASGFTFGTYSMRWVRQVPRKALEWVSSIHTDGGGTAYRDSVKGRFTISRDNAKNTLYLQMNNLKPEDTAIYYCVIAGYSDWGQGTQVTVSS VL: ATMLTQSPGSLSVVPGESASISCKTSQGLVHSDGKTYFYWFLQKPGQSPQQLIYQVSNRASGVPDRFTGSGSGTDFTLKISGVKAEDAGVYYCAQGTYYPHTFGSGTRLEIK has what recorded pKd?
9.23
